B1: TPR t1 (parent)
chain: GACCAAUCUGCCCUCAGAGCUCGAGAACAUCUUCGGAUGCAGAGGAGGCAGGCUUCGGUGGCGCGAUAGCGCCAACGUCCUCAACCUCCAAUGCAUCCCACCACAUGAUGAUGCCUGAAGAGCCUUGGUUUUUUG

variants of: B1; assay: polymerase ribozyme fitness, log enrichment relative to wild type (log ratio); higher = more active; in vitro selection for triplet polymerase activity
measured.attribute: polymerase ribozyme fitness (log ratio)
Keep it simple and answer with nothing but the number.

Looking up G52C G113A C124U , I see its polymerase ribozyme fitness (log ratio) listed as -1.69

Entry C11U C70U C101A G128C — recorded polymerase ribozyme fitness (log ratio) = -4.09

The variant listed as C12U A29C U131G has a reported polymerase ribozyme fitness (log ratio) of -2.88

Entry under test: A43G C86U A91U C101U U131A . Its polymerase ribozyme fitness (log ratio) was -1.79

Entry G77C C86A G117A — recorded polymerase ribozyme fitness (log ratio) = -3.88

// polymerase ribozyme fitness (log ratio) value for A5C G117C : -3.15

The variant C11G U129G showed polymerase ribozyme fitness (log ratio) equal to -1.77

// polymerase ribozyme fitness (log ratio) lookup, variant = C8U U21A C22U A27G C31G C56U G60A C86A U87G C115A A121C , result: -5.4

get_value(item= A90U G93U , readout=polymerase ribozyme fitness (log ratio)) returns -1.11

// polymerase ribozyme fitness (log ratio) value for A83U C89A U96A : -2.34

Value of polymerase ribozyme fitness (log ratio) reported for the variant G60U A121U is 1.63

Given item A50U G113A , the value recorded as its polymerase ribozyme fitness (log ratio) is -2.01

C8G C40A C70G C114A yielded polymerase ribozyme fitness (log ratio) of -5.85

The recorded polymerase ribozyme fitness (log ratio) for C20A A84G C86A G128U U130C is -3.64

get_value(item= G58C A91U , readout=polymerase ribozyme fitness (log ratio)) returns -2.24

Record C15U C53A A83C , field polymerase ribozyme fitness (log ratio): -1.46

Entry G69U C89G U106A G120C G122C ; polymerase ribozyme fitness (log ratio) = -1.79

Record A2G C70U U96A , field polymerase ribozyme fitness (log ratio): -1.87

According to the records, this variant G57C C62G C104A displays polymerase ribozyme fitness (log ratio) of -5.81

What the record says about A43C C56A U59A C72U : polymerase ribozyme fitness (log ratio) is -3.55

GET /value?item= U7A G48A A50G G77A C101U U109A &field=polymerase ribozyme fitness (log ratio) returns -5.13

Looking up G51U G61C , I see its polymerase ribozyme fitness (log ratio) listed as -3.56
